testSystem: recombinant human serotonin receptor 5-HT2A (Homo sapiens)
Construct: expressed in transfected cells; method B: loaded with Ca2+ dye
Sequence (P28223 whole entry): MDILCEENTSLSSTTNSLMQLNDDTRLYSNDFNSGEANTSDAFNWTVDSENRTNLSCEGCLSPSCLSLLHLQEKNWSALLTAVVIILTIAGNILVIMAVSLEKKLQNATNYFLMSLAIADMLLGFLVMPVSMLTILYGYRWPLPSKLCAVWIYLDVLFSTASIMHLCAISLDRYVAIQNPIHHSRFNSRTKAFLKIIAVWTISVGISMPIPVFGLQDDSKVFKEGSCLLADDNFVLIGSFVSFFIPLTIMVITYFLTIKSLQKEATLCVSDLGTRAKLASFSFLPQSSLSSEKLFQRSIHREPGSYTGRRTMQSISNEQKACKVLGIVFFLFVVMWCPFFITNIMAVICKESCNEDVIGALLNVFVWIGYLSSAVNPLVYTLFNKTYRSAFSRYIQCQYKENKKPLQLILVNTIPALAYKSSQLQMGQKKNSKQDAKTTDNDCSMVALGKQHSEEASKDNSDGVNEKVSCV
test: 5-HT2A antagonist Ca2+ assay in CHO-K1 cells (method A aequorin luminescence / method B FLIPR fluorescence)
Type: cell-based
particulars: antagonist mode vs EC80 of reference agonist, method A or B, read-out: 5HT2A IC50
Entries and their measured IC50 follow.
reportedProperty: IC50

• COc1ccccc1O[C@@H]1CCN(CC2Cc3ccccc3C2)[C@@H](C)C1 = 300 nM
• Clc1ccccc1OCCN1CCN(c2nsc3ccccc23)CC1 = 3 nM
• O[C@@H](CO[C@H]1CCc2ccccc21)CN1CCC(Oc2ccc(F)cc2)CC1 = 240 nM
• OC(COC1CCCCC1)CN1CCCC2(CCN(c3ccccc3)C2)C1 (stereo not drawn) = 250 nM
• OC(CO[C@H]1CCc2ccccc21)CN1CC[C@@H](Oc2ccc(F)cc2)C1 (stereo partly drawn) = 830 nM
• OC(COC1CCCCC1)CN1CCC2(CCCN(c3ccccc3)C2)C1 (stereo not drawn) = > 16700 nM
• O=C1c2ccccc2CCN1CCN1C[C@H]2CC[C@@H](C1)N2c1ccccc1 = > 16700 nM
• O=C1CCC(c2ccc(F)cc2)=NN1CN1CCN(c2cccc(Cl)c2)CC1 = 50 nM
• O[C@H](COC1CCCCC1)CN1C[C@@H]2C[C@H](C1)N(c1ccccc1)C2 = > 16700 nM
• COc1ccccc1CN1CCC2(CCN(CC3CCc4ccccc43)C2)C1 (stereo not drawn) = 30 nM
• COc1ccccc1OC1CCN(CC2Cc3ccccc3C2)CC1 = 60 nM
• COCc1cccc(OC2CCN(CC3Cc4cccnc4C3)CC2)c1 (stereo not drawn) = 220 nM
• Fc1ccc(O[C@H]2CCCN(CC3CCc4ccccc43)C2)cc1 (stereo partly drawn) = 520 nM
• C[C@@H]1C[C@@]2(CCc3ccccc3O2)CCN1CCN1CCc2ccccc2C1=O = 160 nM
• c1ccc(O[C@@H]2COC3(C2)CN(C[C@@H]2CCc4ccccc42)C3)cc1 (single isomer, unassigned) = 80 nM
• COc1ccc2c(c1)C(CN1CCC(NS(=O)(=O)c3ccc(F)cc3)CC1)CC2 (stereo not drawn) = 70 nM
• O=C1c2cccnc2CCN1CCN1CCC(Oc2ccc(F)cc2)CC1 = 30 nM
• O=C1c2ccncc2CCN1CCN1CCC(Oc2ccc(F)cc2)CC1 = 70 nM
